Quick list: EC50 per entry.
Target: T1, Rhesus SLC34A2 (Rhesus, UniProt F7HDA3 1-690)
T1 construct: whole, on cells
T1 sequence: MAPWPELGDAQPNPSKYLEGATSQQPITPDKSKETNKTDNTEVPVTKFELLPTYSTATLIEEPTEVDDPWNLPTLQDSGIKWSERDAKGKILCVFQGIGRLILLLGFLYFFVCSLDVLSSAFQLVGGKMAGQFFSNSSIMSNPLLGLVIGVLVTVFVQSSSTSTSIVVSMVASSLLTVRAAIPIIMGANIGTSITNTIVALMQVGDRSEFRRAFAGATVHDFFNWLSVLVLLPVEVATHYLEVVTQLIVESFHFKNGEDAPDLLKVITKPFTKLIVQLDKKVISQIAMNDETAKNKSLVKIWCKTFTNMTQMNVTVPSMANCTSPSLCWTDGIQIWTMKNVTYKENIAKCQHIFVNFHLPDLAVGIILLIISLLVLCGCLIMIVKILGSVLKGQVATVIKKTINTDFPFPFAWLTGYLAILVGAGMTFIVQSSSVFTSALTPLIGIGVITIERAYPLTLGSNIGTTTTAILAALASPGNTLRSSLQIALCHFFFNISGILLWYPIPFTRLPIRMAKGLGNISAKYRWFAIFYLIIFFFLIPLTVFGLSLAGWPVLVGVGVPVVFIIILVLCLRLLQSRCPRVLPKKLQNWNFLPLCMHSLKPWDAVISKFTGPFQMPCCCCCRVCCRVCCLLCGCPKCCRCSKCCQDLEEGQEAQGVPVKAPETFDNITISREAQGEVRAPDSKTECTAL
Assay: FACS, HEK293/Rhesus SLC34A2 cells
Return type: number; implicit unit nM.

Would you please look over these solved cases?
{"BINDER": "62G10E4G8.p3.z11 hIgG1 (antibody, V domains shown, humanized hIgG1) VH: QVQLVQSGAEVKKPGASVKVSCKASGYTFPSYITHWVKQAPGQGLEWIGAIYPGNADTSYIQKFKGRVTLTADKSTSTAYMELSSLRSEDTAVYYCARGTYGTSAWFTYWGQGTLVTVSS VL: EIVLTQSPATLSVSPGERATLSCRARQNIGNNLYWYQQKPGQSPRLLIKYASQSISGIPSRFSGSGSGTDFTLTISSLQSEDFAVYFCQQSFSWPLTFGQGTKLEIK", "OBSERVED": 3.4}
{"BINDER": "30H9B8F9.p1.z5 hIgG1 (antibody, V domains shown, humanized hIgG1) VH: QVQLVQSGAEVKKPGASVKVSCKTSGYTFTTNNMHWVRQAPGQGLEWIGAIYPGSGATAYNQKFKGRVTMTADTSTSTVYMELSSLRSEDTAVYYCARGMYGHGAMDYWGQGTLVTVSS VL: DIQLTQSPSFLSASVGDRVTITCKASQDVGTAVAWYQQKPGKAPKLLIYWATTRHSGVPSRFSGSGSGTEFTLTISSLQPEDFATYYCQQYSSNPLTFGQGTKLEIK", "OBSERVED": 0.7}

Now look at this one.
Would you kindly share the measured EC50 for 30H9B8F9.p1.z6 hIgG1 (antibody, V domains shown, humanized hIgG1) VH: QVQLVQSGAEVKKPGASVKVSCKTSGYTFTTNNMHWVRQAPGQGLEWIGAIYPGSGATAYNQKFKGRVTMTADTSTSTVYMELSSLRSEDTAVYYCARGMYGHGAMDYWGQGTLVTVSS VL: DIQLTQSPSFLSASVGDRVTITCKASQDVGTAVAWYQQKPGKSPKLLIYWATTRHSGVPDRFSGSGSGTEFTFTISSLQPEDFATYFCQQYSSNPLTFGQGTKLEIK ?
1.1
